Molecular target: T1, human PD-1 expressed on cells (human, UniProt Q15116 25-288)
T1 construct: whole, on cells; cell line named under assay; also called CHO-S hPD-1; Raji PD-1
T1 sequence (Q15116 25-288): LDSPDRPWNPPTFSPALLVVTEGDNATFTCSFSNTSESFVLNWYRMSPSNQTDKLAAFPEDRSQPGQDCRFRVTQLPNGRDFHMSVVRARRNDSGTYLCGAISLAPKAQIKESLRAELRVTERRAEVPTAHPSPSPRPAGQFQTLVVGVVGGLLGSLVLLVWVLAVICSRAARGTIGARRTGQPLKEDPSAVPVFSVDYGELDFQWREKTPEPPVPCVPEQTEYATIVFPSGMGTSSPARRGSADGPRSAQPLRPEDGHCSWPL
Experiment: flow cytometry, CHO-S hPD-1
READOUT_TYPE: EC50 (nM)

{"BINDER": "z5-XVT458 (antibody, human IgG1, kappa, V domains shown, hIgG1; numbering as for z1; also called GH + V067A + T073K) VH: QVQLVQSGAEVKKPGASVKVSCKASGYTFTNFYIHWVRQAPGQGLEWMGSIYPNYGDTAYNQKFKDRATMTTDKSTSTAYMELRSLRSDDTAVYYCARGYSYAMDYWGQGTTVTVSS VL: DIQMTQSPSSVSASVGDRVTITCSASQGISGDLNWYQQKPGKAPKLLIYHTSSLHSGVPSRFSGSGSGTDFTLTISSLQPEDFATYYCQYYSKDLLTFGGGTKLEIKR", "READING": 4.51}
{"BINDER": "z2-XVT458 (antibody, IgG1, V domains shown, full hIgG1; also called XVT458-z2; GH + T071V) VH: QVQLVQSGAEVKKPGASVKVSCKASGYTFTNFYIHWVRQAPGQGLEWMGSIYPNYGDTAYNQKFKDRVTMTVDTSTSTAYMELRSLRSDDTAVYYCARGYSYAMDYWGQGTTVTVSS VL: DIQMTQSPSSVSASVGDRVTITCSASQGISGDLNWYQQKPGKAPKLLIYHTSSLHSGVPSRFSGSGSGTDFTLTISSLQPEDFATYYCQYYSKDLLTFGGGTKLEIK", "READING": 4.15}
{"BINDER": "z3-XVT458 (antibody, human IgG1, kappa, V domains shown, hIgG1; numbering as for z1; also called GH + T073K) VH: QVQLVQSGAEVKKPGASVKVSCKASGYTFTNFYIHWVRQAPGQGLEWMGSIYPNYGDTAYNQKFKDRVTMTTDKSTSTAYMELRSLRSDDTAVYYCARGYSYAMDYWGQGTTVTVSS VL: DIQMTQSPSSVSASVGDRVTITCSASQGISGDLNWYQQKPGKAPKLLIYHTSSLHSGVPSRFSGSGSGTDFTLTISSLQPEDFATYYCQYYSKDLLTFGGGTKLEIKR", "READING": 5.47}
{"BINDER": "z0-XVT458 (antibody, human IgG1, kappa, V domains shown, hIgG1; also called GH + uVL) VH: QVQLVQSGAEVKKPGASVKVSCKASGYTFTNFYIHWVRQAPGQGLEWMGSIYPNYGDTAYNQKFKDRVTMTTDTSTSTAYMELRSLRSDDTAVYYCARGYSYAMDYWGQGTTVTVSS VL: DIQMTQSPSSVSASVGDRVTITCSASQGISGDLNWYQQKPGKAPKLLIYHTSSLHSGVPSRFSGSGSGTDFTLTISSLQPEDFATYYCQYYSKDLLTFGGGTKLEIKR", "READING": 5.74}
{"BINDER": "z6-XVT458 (antibody, human IgG1, kappa, V domains shown, hIgG1; numbering as for z1; also called GH + T071V + T073K) VH: QVQLVQSGAEVKKPGASVKVSCKASGYTFTNFYIHWVRQAPGQGLEWMGSIYPNYGDTAYNQKFKDRVTMTVDKSTSTAYMELRSLRSDDTAVYYCARGYSYAMDYWGQGTTVTVSS VL: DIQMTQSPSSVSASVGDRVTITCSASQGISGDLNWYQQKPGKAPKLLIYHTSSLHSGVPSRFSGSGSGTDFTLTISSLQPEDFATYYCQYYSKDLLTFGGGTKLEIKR", "READING": 3.93}
